absorbance at 490 nm: recorded values
experimental_target: T1, ITGA6
T1 construct: unrelated antigen column; all antibodies give 0.5 to 0.6
T1 sequence (P23229 whole entry, species assumed, looked up): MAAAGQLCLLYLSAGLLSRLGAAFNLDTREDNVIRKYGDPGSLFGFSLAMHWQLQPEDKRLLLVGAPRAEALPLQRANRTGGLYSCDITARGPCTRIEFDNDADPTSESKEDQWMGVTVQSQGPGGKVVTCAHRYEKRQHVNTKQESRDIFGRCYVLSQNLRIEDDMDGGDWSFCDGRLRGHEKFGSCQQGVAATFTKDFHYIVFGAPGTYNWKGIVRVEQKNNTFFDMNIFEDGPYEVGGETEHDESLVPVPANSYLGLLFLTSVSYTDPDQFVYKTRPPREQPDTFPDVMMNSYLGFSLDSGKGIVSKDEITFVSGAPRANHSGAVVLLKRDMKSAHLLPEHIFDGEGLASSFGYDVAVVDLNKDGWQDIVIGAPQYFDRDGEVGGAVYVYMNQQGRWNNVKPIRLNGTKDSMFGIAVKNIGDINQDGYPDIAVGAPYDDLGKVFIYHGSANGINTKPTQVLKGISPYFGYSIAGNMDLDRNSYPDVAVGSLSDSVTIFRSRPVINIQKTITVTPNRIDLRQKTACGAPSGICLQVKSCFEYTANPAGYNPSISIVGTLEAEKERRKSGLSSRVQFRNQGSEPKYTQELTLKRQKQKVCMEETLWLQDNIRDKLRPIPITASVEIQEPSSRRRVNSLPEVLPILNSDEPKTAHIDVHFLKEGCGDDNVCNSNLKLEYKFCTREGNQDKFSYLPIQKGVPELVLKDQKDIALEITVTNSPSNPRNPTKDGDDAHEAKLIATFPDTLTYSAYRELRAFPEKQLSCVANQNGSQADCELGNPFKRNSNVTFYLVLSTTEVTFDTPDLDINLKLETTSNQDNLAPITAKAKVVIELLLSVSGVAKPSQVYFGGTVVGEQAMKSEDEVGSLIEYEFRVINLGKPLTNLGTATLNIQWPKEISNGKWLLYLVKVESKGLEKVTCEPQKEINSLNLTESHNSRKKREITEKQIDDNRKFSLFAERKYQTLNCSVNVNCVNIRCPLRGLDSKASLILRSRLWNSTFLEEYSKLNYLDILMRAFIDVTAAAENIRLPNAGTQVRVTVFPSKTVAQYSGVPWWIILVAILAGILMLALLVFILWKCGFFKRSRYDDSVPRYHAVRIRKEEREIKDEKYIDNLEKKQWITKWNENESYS
measurement_description: ELISA on coated antigen, column ITGA6
Could you respond with only the numeric value?

**Q:** Write down absorbance at 490 nm measured for item PDL1-31B7 (antibody, V domains shown, Only FR/CDR pieces are tied to the clone) VH: QVQLVESGAEVKKPGSSVKVSCKASGGTFSSYAISWVRQAPGQGLEWMGRIIPILGIANYAQKFQGRVTITADKSTSTAYMELSSLRSEDTAVYYCARASSGYSVGAFDIWGQGTMVTVSS VL: QLVLTQPPSVSAPPGQKVTISCSGSSSNIGNNYVSWYQQLPGTAPKLLIYDNNERPSGIPDRFSASKSGTSATLGISGLQTGDEADYYCGTWDSSLSAGVFGGGTKLTVL
**A:** 0.5

**Q:** // Input: PDL1-27F8 (antibody, V domains shown, Only FR/CDR pieces are tied to the clone) VH: QVQLVQSGAEVKKPGSSVKVSCKASGGTFSSSAFSWVRQAPGHGLEWMGRIIPMFDMTDYAQRFQGRLTIIADESSSTAYMELSSLRSEDTAVYYCARSNPHYMDVWGQGTTVTVSS VL: QLVLTQPPSVSGAPGQRVTISCTGSNSDIGAGHDVHWYQQIPGTAPKVLIYGNTDRPSGVPDRFSGSKSGTSASLAITGLQAEDEADYYCQSYDSSLSGYVFGTGTKVTVL . Output its absorbance at 490 nm only.
**A:** 0.5

Attention now shifts to the item below.
**Q:** Note down absorbance at 490 nm recorded for PDL1-23E10 (scFv, V domains shown) VH: QMQLVESGAEVKKPGSSVKVSCKVSGENFRSHAISWVRQAPGQGLEWMGRIIPIVGLADYPQKFQGRVTISADESTGTAYMDLSSLRSEDTAVYYCVTGRPPWHWGQGILITVSS VL: QLVLTQPPSVSGAPGQRVTISCTGSSSNIGAGYDVHWYQQLPGTAPKLLIYSNRNRPSGVPDRFSGSKSGTSASLAITGLQAEDEADYYCQSYDSSLSGPNYVFGTGTKVTVL
**A:** 0.5
